- target_of_assay: TDO2 (Homo sapiens)
- protocol: TDO2 cell assay (NFK GreenScreen) in SW48 cells
- cond: read-out: TDO2 cell Fluor EC50, NFK GreenScreen fluorescence
recorded_metric: EC50 (nM)
One number for each entry, in nM.

Query :: Using the record for c1ccc2c(c1)-c1cncn1[C@H]2C1CCCCC1 [Example 19b] , report its EC50.
Result :: 33

* * *

- target_of_assay: IDO1 (Homo sapiens, UniProt P14902)
- Sequence (P14902 whole entry): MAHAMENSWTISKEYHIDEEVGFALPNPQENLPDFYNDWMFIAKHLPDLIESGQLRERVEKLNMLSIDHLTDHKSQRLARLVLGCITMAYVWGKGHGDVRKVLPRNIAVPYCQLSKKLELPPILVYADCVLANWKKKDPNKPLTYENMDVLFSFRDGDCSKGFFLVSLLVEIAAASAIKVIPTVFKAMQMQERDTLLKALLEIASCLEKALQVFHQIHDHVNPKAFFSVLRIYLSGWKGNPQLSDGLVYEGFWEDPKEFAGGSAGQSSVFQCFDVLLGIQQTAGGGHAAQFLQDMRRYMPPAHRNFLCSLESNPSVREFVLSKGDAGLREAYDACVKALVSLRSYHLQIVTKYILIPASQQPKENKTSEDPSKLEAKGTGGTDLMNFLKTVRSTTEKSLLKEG
- protocol: cell-based
pEC50: −log10 of the molar value.
# binarize pEC50: threshold 5 inclusive, high side T, low side F

Examples from the recorded data:
# compound, group
rows = [
    ("N#Cc1cccc(C2c3ccccc3-c3cncn32)c1 (stereo not drawn) [Example 17]", "F"),
    ("CC1(C)CC(C2c3ccccc3-c3cncn32)C1 (stereo not drawn) [Example 67]", "T"),
    ("O=S(=O)(N1CCC1)N1CCC(C2c3ccc(F)cc3-c3cncn32)CC1 (stereo not drawn) [Example 88]", "T"),
    ("NC(=O)C1CCC(C2c3ccccc3-c3cncn32)CC1 (single isomer, unassigned) [Example 60d]", "F"),
    ("CC1(O)CCC(C2c3ccccc3-c3cncn32)CC1 (stereo not drawn) [Example 70]", "T"),
]

Query :: Tell me whether pEC50 is at least 5 here: c1ccc2c(c1)-c1cncn1C2C1CCC1 (stereo not drawn) [Example 34, 5-cyclobutyl-5H-imidazo[5,1-a]isoindole]
Result :: T

Query :: Threshold query (pEC50 >= 5) on NC(=O)c1cc(F)cc(C2c3ccccc3-c3cncn32)c1 (stereo not drawn) [Example 51]
Result :: T

Query :: Check this compound for pEC50 at or above 5: CC(C)(C)OC(=O)N1CCC2(CC1)CC(C1c3ccccc3-c3cncn31)C2 (stereo not drawn) [Example 57]
Result :: T

Query :: Evaluate O=S(=O)(NC1CC1)N1CCC(C2c3ccc(F)cc3-c3cncn32)CC1 (stereo not drawn) [Example 89] : pEC50 at minimum 5?
Result :: T

Query :: Hi team, for NS(=O)(=O)N1CCCC(C2c3ccccc3-c3cncn32)C1 (stereo not drawn) [Example 64] , is the recorded pEC50 at or above 5?
Result :: T

Query :: pEC50 >= 5 for O=C(C1CC1)N1CCC(C2c3ccccc3-c3cncn32)CC1 (stereo not drawn) [Example 18] ?
Result :: F

Query :: Exam item: decide whether the reported pEC50 for NS(=O)(=O)N1CCC(C2c3ccc(F)cc3-c3cncn32)CC1 (single isomer, unassigned) [Example 74b] is at least 5.
Result :: T

Query :: Determine whether measured pEC50 meets or exceeds 5 for NS(=O)(=O)N1CC2(CC(C3c4ccccc4-c4cncn43)C2)C1 (stereo not drawn) [Example 66]
Result :: F

* * *

- target_of_assay: TDO2 (Homo sapiens, UniProt P48775)
- Sequence (P48775 whole entry): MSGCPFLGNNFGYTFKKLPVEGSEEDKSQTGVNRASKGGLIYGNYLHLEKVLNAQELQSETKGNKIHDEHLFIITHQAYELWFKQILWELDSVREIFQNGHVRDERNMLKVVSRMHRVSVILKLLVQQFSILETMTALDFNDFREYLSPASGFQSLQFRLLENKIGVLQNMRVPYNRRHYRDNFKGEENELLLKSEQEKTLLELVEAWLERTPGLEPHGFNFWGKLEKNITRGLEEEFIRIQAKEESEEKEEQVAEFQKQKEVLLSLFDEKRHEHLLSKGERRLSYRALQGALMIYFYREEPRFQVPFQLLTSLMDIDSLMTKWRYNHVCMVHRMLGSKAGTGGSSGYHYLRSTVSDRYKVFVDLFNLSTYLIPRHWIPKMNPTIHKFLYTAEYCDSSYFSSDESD
- protocol: cell-based
Can you tell me pEC50 for the items I'm about to list?
Give bare numbers, as −log10 of the molar value.

Some compounds with recorded pEC50:
# compound, target_of_assay, pEC50
data = [
    ("c1cncc(C2c3ccccc3-c3cncn32)c1 (centres unmarked) [Example 37]", "TDO2 (Homo sapiens, UniProt P48775)", 5.39),
    ("NS(=O)(=O)c1cccc(C2c3ccccc3-c3cncn32)c1 (single isomer, unassigned) [Example 07b]", "TDO2 (Homo sapiens, UniProt P48775)", 6.10),
]

I need pEC50 for every entry listed below, if you could help.
1. NC(=O)C1CCC(C2c3ccccc3-c3cncn32)CC1 (single isomer, unassigned) [Example 60b]
2. O=S(=O)(N1CCC1)N1CCC(C2c3ccc(F)cc3-c3cncn32)CC1 (centres unmarked) [Example 88]
3. c1ccc2c(c1)-c1cncn1C2C1CCOCC1 (centres unmarked) [Example 14]

Result ::
6.57
6.05
6.09

* * *

- target_of_assay: TDO2 (Homo sapiens, UniProt P48775)
- protocol: cell-based
Consider the following molecules; for each one, report its EC50.
Give bare numbers, in µM.

# example entries with known answers
# molecule, EC50 [µM]
measured = [
    ("O=S1(=O)NCC2CC(C3c4ccccc4-c4cncn43)CCN21 (centres unmarked)", 0.42),
    ("N#Cc1cccc(C2c3ccccc3-c3cncn32)c1 (centres unmarked)", 2),
    ("CC(O)c1cccc(C2c3ccccc3-c3cncn32)c1 (single isomer, unassigned) [Example 10d]", 5),
]

Batch lookup, EC50 per entry.
1. O=C(C1CC1)N1CCC(C2c3ccccc3-c3cncn32)CC1 (centres unmarked)
2. CS(=O)(=O)N1CC2CC(C3c4ccccc4-c4cncn43)CC2C1 (centres unmarked) [Example 75a]

Result ::
[9.6, 2.1]

* * *

- target_of_assay: TDO2 (Homo sapiens, UniProt P48775)
- protocol: cell-based
Please go through the items and note down their log10(EC50).
Units before log transform: nM; reported quantity: EC50; transform: log10.

Please review the entries below; each comes with its answer.
# compound, log10(EC50)
rows = [
    ("c1ccc2c(c1)-c1cncn1C2C1CCn2nccc2C1 (single isomer, unassigned) [Example 05c]", 4.38),
    ("CCS(=O)(=O)N1CC(C2c3ccccc3-c3cncn32)C1 (centres unmarked) [Example 25]", 4.15),
    ("OCc1cccc(C2c3ccccc3-c3cncn32)n1 (centres unmarked) [Example 03]", 4.11),
    ("NS(=O)(=O)N1CC2(CC(C3c4ccccc4-c4cncn43)C2)C1 (centres unmarked) [Example 66]", 3.04),
    ("c1ccc2c(c1)-c1cncn1C2C1CCC1 (centres unmarked) [Example 34, 5-cyclobutyl-5H-imidazo[5,1-a]isoindole]", 3.00),
    ("CS(=O)(=O)N1CC2(CCC(C3c4ccccc4-c4cncn43)CC2)C1 (single isomer, unassigned) [Example 78b]", 3.40),
    ("CC(C)(C)OC(=O)N1CCC2(CC1)CC(C1c3ccccc3-c3cncn31)C2 (centres unmarked) [Example 57]", 3.18),
    ("Fc1cc(F)cc(C2c3ccccc3-c3cncn32)c1 (centres unmarked) [Example 45]", 2.15),
]

Each compound below has a reported value. Please supply its log10(EC50).
1. NS(=O)(=O)N1CCC(C2c3ccc(F)cc3-c3cncn32)CC1 (single isomer, unassigned) [Example 74b]
2. c1ccc2c(c1)-c1cncn1[C@@H]2C1CCCCC1 [Example 19a]
3. CS(=O)(=O)N1CC2C(C1)C2C1c2ccccc2-c2cncn21 (centres unmarked) [Example 93]
4. N#CC1(CC2c3ccccc3-c3cncn32)CC1 (centres unmarked) [Example 48]
5. CS(=O)(=O)N1CCC2(CC1)CC(C1c3ccccc3-c3cncn31)C2 (centres unmarked) [Example 59]
6. NC(=O)c1cccc(C2c3ccccc3-c3cncn32)c1 (centres unmarked) [Example 11]
7. NS(=O)(=O)N1CCCC(C2c3ccccc3-c3cncn32)C1 (centres unmarked) [Example 64]

Result ::
1. 1.81
2. 4.23
3. 2.89
4. 3.79
5. 2.38
6. 2.81
7. 2.61

Batch: log10(EC50) for all items listed.
1. c1ccc2c(c1)-c1cncn1C2CCC1CCCCC1 (centres unmarked) [Example 22]
2. c1ccc2c(c1)-c1cncn1C2C1CCn2nccc2C1 (single isomer, unassigned) [Example 05b]

Result ::
[3.36, 3.23]

* * *

- target_of_assay: IDO1 (Homo sapiens, UniProt P14902)
- protocol: cell-based
recorded_metric: pEC50
Answers are plain numbers, as −log10 of the molar value.

# compound, target_of_assay, result_value
records = [
    ("CS(=O)(=O)N1CC2C(C1)C2C1c2ccccc2-c2cncn21 (centres unmarked)", "IDO1 (Homo sapiens, UniProt P14902)", 5.07),
    ("NS(=O)(=O)N1CC2C(C1)C2C1c2ccccc2-c2cncn21 (centres unmarked)", "IDO1 (Homo sapiens, UniProt P14902)", 5.05),
]

Please state pEC50 for every compound in the list that follows.
1. c1ccc2c(c1)-c1cncn1C2C1CCC2(CC1)OCCO2 (centres unmarked)
2. c1ccc2c(c1)-c1cncn1C2C1CCc2ccncc2C1 (centres unmarked)
3. Cn1ncc2cc(C3c4ccccc4-c4cncn43)ccc21 (centres unmarked) [Example 55b]
4. Cn1cc(C2c3ccccc3-c3cncn32)cn1 (single isomer, unassigned) [Example 79b]
5. CS(=O)(=O)N1CCCC(C2c3ccccc3-c3cncn32)C1 (centres unmarked)

Result ::
5.01
5.70
5.09
5.07
4.85

Hi team, please reply with pEC50 for each item in this list.
1. CC(O)c1cccc(C2c3ccccc3-c3cncn32)c1 (single isomer, unassigned) [Example 10c]
2. OCc1cc(F)cc(C2c3ccccc3-c3cncn32)c1 (single isomer, unassigned) [Example 09a]
3. c1ccc2c(c1)-c1cncn1[C@@H]2C1CCCCC1 [Example 19a]
4. CS(=O)(=O)c1ccc(C2c3ccccc3-c3cncn32)cc1 (centres unmarked)
5. c1ccc2c(c1)-c1cncn1C2C1CC2(COC2)C1 (centres unmarked)
6. CC(C)(C)OC(=O)N1CC2(CCC(C3c4ccccc4-c4cncn43)CC2)C1 (centres unmarked)
7. Fc1cc(C2c3ccccc3-c3cncn32)cc(F)c1F (centres unmarked)

Result ::
1. 4.66
2. 4.68
3. 5.00
4. 5.34
5. 4.96
6. 6.85
7. 5.72

Provide reported pEC50 for each item, in the same order as listed.
1. OCc1cc(F)cc(C2c3ccccc3-c3cncn32)c1 (single isomer, unassigned) [Example 09b]
2. CNS(=O)(=O)c1cccc(C2c3ccccc3-c3cncn32)c1 (centres unmarked)
3. CS(=O)(=O)N1CC2(CCC(C3c4ccccc4-c4cncn43)CC2)C1 (single isomer, unassigned) [Example 78b]
4. OCc1cccc([C@H]2c3ccccc3-c3cncn32)c1 [Example 01b]
5. NC(=O)C1CCC(C2c3ccccc3-c3cncn32)CC1 (single isomer, unassigned) [Example 60b]
6. CS(=O)(=O)N1CC2(CCC(C3c4ccccc4-c4cncn43)CC2)C1 (single isomer, unassigned) [Example 78a]

Result ::
1: 5.48; 2: 4.96; 3: 5.85; 4: 5.07; 5: 5.82; 6: 4.74

For every item below, please supply its pEC50.
1. CS(=O)(=O)N1CCC(C2c3ccccc3-c3cncn32)CC1 (centres unmarked)
2. O=S1(=O)NCC2CC(C3c4ccccc4-c4cncn43)CCN21 (centres unmarked)
3. CS(=O)(=O)N1CC2(CC(C3c4ccccc4-c4cncn43)C2)C1 (single isomer, unassigned) [Example 72a]

Result ::
6.03
5.15
5.52
